target: Muscarinic acetylcholine receptor M5 (Homo sapiens) (UniProt P08912); assay: Activation of human muscarinic M5 receptor expressed in CHO cells coexpressing Gq protein assessed as potentiation of acetylcholine-induced intracellular Ca2+ mobilization at 30 uM relative to acetylcholine; assay type: functional, cell-based
Sequence (P08912 whole entry): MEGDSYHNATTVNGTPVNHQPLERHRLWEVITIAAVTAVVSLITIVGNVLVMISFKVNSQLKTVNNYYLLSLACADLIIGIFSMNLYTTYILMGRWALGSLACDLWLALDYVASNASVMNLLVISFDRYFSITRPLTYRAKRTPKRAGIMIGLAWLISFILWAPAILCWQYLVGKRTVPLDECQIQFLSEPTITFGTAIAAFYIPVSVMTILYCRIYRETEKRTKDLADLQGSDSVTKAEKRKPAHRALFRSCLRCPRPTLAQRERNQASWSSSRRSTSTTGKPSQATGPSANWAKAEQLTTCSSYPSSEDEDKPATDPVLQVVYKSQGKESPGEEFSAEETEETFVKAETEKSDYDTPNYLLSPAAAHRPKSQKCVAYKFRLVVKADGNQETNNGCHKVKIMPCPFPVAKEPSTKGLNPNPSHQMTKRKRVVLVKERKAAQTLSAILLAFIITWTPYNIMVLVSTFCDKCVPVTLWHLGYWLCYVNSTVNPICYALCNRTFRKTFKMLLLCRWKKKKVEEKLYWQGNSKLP
measurement name: %max (%)
I only need the number, in %, no unit after it.

Entry COc1cccc(CN2C(=O)C(=O)c3c(Cl)ccc(Cl)c32)c1 , %max reported as 35.1

Entry O=C1C(=O)N(Cc2c(F)cccc2F)c2c(F)cccc21 , %max reported as 25.1

Entry O=C1C(=O)N(Cc2c(F)cccc2F)c2ccc(F)cc21 , %max reported as 31.1

Entry O=C1C(=O)N(Cc2ccccc2F)c2ccc(F)cc21 , %max reported as 46.2

Entry Cc1ccc2c(c1)C(=O)C(=O)N2Cc1ccccc1Cl , %max reported as 24.3

Entry O=C1C(=O)N(Cc2ccccc2Cl)c2c(F)cccc21 , %max reported as 20.3

Entry O=C1C(=O)N(Cc2ccc(OC(F)(F)F)cc2)c2c(Cl)cccc21 , %max reported as 72.3
